meta.source: patent US20240360228A1

# experimental.system: T1, human chemokine (C-C motif) receptor 8 (CCR8) (human, UniProt P51685 1-355)
# T1 construct: On human peripheral blood lymphocytes / PBMC (native) or on human CCR8 GFP-transfected Ba/F3 cells; also called hCCR8; human CCR8
# T1 sequence (P51685 whole entry): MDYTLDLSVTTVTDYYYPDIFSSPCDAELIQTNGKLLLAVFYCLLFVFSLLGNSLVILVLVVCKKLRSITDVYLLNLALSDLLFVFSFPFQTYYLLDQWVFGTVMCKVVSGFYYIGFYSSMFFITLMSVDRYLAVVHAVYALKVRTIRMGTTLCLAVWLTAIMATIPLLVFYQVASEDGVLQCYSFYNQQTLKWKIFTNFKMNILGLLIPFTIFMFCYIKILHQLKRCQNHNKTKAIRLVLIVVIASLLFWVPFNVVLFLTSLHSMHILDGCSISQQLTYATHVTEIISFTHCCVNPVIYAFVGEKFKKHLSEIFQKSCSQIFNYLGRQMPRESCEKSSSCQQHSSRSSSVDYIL
# assay.explanation: flow cytometry blocking, PBMC CCR8+ CD4+ cells; competitor PE-AB4 (its MFI is read)
MFI values for the binders below.
Kindly provide the number alone.

INSERT INTO results (binder, endpoint_value) VALUES
  ('AB11 (antibody, V domains shown, Hybridoma monoclonal; also called antibody 11; clone 11) VH: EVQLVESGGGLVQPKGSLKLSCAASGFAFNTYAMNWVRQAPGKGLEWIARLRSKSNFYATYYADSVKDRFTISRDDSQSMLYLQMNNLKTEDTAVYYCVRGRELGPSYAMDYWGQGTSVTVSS VL: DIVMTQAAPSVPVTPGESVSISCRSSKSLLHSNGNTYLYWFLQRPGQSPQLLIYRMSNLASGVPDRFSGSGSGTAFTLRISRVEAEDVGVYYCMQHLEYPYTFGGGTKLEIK', 1050);

Next:
Please fill in: MFI reported for AB8 (antibody, V domains shown, Hybridoma monoclonal; also called antibody 8; clone 8) VH: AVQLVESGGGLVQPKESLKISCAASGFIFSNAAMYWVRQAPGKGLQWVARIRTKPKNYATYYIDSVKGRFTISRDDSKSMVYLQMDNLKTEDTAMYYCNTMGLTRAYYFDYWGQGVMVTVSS VL: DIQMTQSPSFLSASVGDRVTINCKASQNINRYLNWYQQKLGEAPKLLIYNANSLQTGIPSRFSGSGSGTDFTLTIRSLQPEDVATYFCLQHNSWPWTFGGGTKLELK = 962
